kinase still bound, per cent of control reference
Molecular target: AURKB (human) (UniProt Q96GD4)
Sequence (Q96GD4 whole entry, looked up): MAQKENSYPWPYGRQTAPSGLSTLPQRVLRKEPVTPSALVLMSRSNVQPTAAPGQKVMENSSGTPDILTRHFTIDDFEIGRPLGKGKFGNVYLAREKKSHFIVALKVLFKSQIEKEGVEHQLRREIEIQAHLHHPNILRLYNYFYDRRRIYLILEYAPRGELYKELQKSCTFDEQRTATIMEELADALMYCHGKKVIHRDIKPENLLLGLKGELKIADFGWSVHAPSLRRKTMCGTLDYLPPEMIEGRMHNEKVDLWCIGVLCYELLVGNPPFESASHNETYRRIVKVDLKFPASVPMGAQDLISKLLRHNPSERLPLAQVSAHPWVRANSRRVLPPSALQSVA
Assay: KINOMEscan competition binding
Conditions: compound 10.0 µM
// units = %; emit number, no label

Some solved entries appear below for comparison.
item-smiles | unit-of-measure | kinase still bound, per cent of control
CN1C(=O)[C@H]2CCC[C@H]2N(C2CCCC2)c2nc(Nc3ccc(C(N)=O)cc3)ncc21 | % | 8.6
CS(=O)(=O)Nc1ccc(-c2cncc(/C=C3\SC(=N)NC3=O)c2)cc1 | % | 24

Using the record for `CN1C(=O)c2ccccc2N(C)c2nc(Nc3ccc(N4CCC(O)CC4)cn3)ncc21` , report its kinase still bound, per cent of control.
25

How about this molecule: `CN1C(=O)c2ccccc2N(C)c2nc(NS(=O)(=O)c3ccc(N)cc3)ncc21`
100

How about this molecule: `N=C1NC(=O)/C(=C/c2ccc(-c3cncc4ccccc34)o2)S1`
0.8

How about this molecule: `O=C1NC(=O)/C(=C/c2c[nH]c(=O)c(-c3ccc(N4CCNCC4)nc3)c2)S1`
71

How about this molecule: `CN1C(=O)[C@H]2CCC[C@H]2N(C2CCCC2)c2nc(Nc3ccc4ncccc4c3)ncc21`
21

How about this molecule: `COc1cc(N2CCN(C)CC2)ccc1Nc1ncc2c(n1)Nc1ccccc1NC2=O`
59

How about this molecule: `COc1cc(N2CCN(C)CC2)ccc1Nc1ncc2c(n1)N(C)c1sccc1C(=O)N2C`
56

---

Target: EPHA1 (human) (UniProt P21709)
Sequence (P21709 whole entry, looked up): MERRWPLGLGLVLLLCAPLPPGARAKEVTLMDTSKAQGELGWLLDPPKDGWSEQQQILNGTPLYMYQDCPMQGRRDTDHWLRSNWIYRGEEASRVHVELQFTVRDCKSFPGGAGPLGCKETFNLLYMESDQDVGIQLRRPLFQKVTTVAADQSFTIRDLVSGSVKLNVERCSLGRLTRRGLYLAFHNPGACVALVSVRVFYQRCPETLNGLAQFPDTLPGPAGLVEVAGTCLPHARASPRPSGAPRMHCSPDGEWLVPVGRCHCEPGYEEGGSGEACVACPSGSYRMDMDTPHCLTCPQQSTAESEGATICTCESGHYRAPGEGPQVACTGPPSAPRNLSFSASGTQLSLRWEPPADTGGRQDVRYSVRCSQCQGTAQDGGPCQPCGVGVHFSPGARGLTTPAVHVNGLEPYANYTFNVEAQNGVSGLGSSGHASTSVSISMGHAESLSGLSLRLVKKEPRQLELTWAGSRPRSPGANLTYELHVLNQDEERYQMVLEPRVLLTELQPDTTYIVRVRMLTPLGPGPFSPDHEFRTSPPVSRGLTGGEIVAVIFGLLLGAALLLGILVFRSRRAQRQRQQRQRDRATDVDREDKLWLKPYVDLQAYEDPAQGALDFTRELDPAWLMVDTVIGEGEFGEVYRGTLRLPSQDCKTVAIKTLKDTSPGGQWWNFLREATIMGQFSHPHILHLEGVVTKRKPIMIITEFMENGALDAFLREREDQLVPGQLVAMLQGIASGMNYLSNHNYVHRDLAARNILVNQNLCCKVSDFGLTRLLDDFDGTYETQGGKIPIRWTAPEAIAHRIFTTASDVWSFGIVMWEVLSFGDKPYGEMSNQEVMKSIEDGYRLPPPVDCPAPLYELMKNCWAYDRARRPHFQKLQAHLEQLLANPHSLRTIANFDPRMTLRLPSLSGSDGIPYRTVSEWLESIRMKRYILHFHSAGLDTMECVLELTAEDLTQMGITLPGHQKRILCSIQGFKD
Assay: KINOMEscan competition binding
Settings: compound 10.0 µM
kinase still bound, per cent of control reference
// units = %; emit number, no label

Using the record for `COc1cc(N2CCN(C)CC2)ccc1Nc1ncc2c(n1)Nc1ccccc1NC2=O` , report its kinase still bound, per cent of control.
74

How about this molecule: `O=C1NC(=O)/C(=C/c2c[nH]c(=O)c(-c3ccc(N4CCNCC4)nc3)c2)S1`
100

How about this molecule: `COc1cc(N2CCC(O)CC2)ccc1Nc1ncc2c(n1)N1CCc3cccc(c31)C(=O)N2C`
100

How about this molecule: `COc1cc(N2CCN(C)CC2)ccc1Nc1ncc2c(n1)N(C)c1ccccc1N(C)C2=O`
100

---

kinase still bound, per cent of control reference
Target: MAP3K9 (human) (UniProt P80192)
Sequence (P80192 whole entry, looked up): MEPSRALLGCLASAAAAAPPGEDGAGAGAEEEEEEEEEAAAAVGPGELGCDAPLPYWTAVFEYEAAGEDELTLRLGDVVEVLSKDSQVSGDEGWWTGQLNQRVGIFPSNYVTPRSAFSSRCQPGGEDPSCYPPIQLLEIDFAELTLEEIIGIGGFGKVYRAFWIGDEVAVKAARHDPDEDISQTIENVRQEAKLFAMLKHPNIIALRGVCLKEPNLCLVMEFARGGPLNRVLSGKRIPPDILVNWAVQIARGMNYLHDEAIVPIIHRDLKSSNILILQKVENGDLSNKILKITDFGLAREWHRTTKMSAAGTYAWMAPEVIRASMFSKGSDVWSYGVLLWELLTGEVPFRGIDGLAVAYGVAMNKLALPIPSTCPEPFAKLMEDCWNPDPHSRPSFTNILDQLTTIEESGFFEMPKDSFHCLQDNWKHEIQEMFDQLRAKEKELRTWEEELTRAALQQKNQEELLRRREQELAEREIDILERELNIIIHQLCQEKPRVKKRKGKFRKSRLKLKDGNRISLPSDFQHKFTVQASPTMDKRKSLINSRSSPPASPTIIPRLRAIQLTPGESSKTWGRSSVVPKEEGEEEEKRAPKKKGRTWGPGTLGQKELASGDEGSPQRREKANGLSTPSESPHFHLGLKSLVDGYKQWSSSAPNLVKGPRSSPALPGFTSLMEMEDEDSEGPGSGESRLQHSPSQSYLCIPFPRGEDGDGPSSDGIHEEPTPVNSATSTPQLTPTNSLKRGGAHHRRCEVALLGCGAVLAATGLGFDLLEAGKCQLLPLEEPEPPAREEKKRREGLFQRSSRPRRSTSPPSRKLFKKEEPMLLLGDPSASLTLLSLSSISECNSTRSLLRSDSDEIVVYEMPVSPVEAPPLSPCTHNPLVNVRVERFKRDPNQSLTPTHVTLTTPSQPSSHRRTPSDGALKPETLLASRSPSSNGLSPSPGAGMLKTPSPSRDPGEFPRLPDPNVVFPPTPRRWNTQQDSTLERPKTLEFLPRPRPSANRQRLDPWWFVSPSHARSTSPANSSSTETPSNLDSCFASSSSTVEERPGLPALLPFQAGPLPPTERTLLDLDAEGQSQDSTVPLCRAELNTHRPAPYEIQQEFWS
Assay: KINOMEscan competition binding
Details: compound 10.0 µM
// units = %; emit number, no label

item-smiles | unit-of-measure | readout-value
N=C1NC(=O)/C(=C/c2ccc(-c3cncc4ccccc34)o2)S1 | % | 28
CN1C(=O)c2ccccc2N(C)c2nc(NS(=O)(=O)c3ccc(N)cc3)ncc21 | % | 100
COc1cc(N2CCC(O)CC2)ccc1Nc1ncc2c(n1)N1CCc3cccc(c31)C(=O)N2C | % | 96
COc1cc(N2CCN(C)CC2)ccc1Nc1ncc2c(n1)Nc1ccccc1NC2=O | % | 82

Using the record for `CN1CCN(c2ccc(C(=O)Nc3ncc4c(n3)N(C)c3ccccc3C(=O)N4C)cc2)CC1` , report its kinase still bound, per cent of control.
100

---

Molecular target: MAPKAPK2 (human)
Test: KINOMEscan competition binding
Conditions: compound 10.0 µM
reported-metric: kinase still bound, per cent of control (%)
// units = %; emit number, no label

Using the record for `COc1cc(N2CCN(C)CC2)ccc1Nc1ncc2c(n1)N(C)c1ccccc1N(C)C2=O` , report its kinase still bound, per cent of control.
95

How about this compound: `COc1cc(N2CCN(C)CC2)ccc1Nc1ncc2c(n1)Nc1ccccc1NC2=O`
96

How about this compound: `COc1cc(N2CCC(O)CC2)ccc1Nc1ncc2c(n1)N1CCc3cccc(c31)C(=O)N2C`
100

How about this compound: `COc1cc(N2CCN(C)CC2)ccc1Nc1ncc2c(n1)N(C)c1sccc1C(=O)N2C`
89

Ref: the kinase profiling compilation of Christmann-Franck et al. (2016)
